- measurement_target: Serine/threonine-protein kinase TAO2 (Rattus norvegicus)
- experiment_notes: Inhibition of rat TAOK2 (1 to 320 residues) expressed in Baculovirus/insect cell expression system assessed as remaining activity using MBP as substrate and [32P]ATP measured after 10 mins by Kinase-Glo assay
pIC50: −log10 of the molar value.
Please mark met if the recorded pIC50 is equal to or greater than 6, and not met if it falls below.

molecule: CC(=O)Nc1nc(C)c(-c2csc(Nc3cccc([N+](=O)[O-])c3)n2)s1
measurement_target: Serine/threonine-protein kinase TAO2 (Rattus norvegicus)
group: not met
//
molecule: COc1ccc(O)c(/C=C2/SC(=S)NC2=O)c1
measurement_target: Serine/threonine-protein kinase TAO2 (Rattus norvegicus)
group: not met
//
molecule: O=C(NCC1COc2ccccc2O1)c1ccc(NC(=O)c2ccco2)cc1 (stereo unspecified)
measurement_target: Serine/threonine-protein kinase TAO2 (Rattus norvegicus)
group: not met
//
molecule: O=C(NCC1COc2ccccc2O1)c1ccc2c(=O)n(Cc3ccco3)c(=S)[nH]c2c1 (stereo unspecified)
measurement_target: Serine/threonine-protein kinase TAO2 (Rattus norvegicus)
group: met
//
molecule: Cc1ccc(NCCCC(=O)N/N=C/c2cc(Br)cc(Br)c2O)cc1
measurement_target: Serine/threonine-protein kinase TAO2 (Rattus norvegicus)
group: not met
//
molecule: Cc1nc(N)sc1-c1csc(Nc2cccc([N+](=O)[O-])c2)n1
measurement_target: Serine/threonine-protein kinase TAO2 (Rattus norvegicus)
group: not met

====

- measurement_target: Serine/threonine-protein kinase TAO2 (Rattus norvegicus)
- Sequence (Q9JLS3 whole entry): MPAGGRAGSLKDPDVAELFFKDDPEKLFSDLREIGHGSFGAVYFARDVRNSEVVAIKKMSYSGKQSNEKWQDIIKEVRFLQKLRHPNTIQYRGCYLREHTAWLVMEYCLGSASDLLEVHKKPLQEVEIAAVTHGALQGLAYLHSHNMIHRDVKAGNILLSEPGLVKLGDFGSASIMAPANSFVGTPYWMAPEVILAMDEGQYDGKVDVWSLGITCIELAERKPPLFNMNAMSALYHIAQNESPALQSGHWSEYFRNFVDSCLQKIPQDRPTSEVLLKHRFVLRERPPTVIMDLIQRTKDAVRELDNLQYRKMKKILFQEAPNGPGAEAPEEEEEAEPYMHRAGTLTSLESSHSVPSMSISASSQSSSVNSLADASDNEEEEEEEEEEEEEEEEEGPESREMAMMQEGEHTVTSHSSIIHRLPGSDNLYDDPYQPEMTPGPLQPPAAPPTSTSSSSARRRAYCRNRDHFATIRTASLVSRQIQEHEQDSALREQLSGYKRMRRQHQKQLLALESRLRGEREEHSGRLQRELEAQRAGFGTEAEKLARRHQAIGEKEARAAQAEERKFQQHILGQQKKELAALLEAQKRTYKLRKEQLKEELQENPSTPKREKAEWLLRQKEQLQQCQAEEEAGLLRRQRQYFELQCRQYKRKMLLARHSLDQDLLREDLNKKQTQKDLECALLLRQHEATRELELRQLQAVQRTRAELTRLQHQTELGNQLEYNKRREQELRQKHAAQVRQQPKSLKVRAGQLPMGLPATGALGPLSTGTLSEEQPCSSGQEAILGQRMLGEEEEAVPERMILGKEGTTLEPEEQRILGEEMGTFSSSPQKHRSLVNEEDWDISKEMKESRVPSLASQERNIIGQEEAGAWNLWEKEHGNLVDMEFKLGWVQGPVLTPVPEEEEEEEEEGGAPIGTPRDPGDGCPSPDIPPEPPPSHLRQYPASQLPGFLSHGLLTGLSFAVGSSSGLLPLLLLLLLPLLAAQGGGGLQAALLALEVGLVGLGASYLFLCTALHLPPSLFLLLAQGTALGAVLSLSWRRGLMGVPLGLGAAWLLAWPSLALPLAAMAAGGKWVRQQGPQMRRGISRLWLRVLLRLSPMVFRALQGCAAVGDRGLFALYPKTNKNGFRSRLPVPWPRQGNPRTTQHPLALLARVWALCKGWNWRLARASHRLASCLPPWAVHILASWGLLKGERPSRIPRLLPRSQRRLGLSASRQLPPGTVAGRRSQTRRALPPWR
- experiment_notes: Inhibition of rat TAOK2 (1 to 320 residues) expressed in Baculovirus/insect cell expression system assessed as remaining activity using MBP as substrate and [32P]ATP measured after 10 mins by Kinase-Glo assay

compound: O=C(Nc1cccc(-c2nc3ccccc3c(=O)o2)c1)c1ccccc1Br
IC50 / µM: 4

compound: CN1c2ccc(S(C)(=O)=O)cc2SC1NC(=O)CCCOC1CCCCC1 (stereo not drawn)
IC50 / µM: 1.9

compound: CC(=O)c1cccc(Nc2nc(-c3sc(N)nc3C)cs2)c1
IC50 / µM: 1.4

compound: CC(=O)Nc1nc(C)c(-c2csc(Nc3cccc(C(=O)O)c3)n2)s1
IC50 / µM: 1.3

compound: CC(=O)Nc1nc(C)c(-c2csc(Nc3ccc(C)cc3)n2)s1
IC50 / µM: 1.1

compound: CN1c2ccc(S(C)(=O)=O)cc2SC1NC(=O)c1ccc(C(=O)c2ccccc2)cc1 (stereo not drawn)
IC50 / µM: 1

compound: CCC(=O)Nc1nc(C)c(-c2csc(Nc3cc(Cl)ccc3C)n2)s1
IC50 / µM: 1.6

compound: CC(=O)Nc1nc(C)c(-c2csc(Nc3ccccc3)n2)s1
IC50 / µM: 1.1
